# Tested on: SF-295
# measurement-protocol: NCI tumour cell line growth inhibition, 48 h
Calls of active or inactive are those of the source. Cut-off read from the data, not from the text of the source: active = GI50 up to about 1.1 µM and inactive = higher.
Just give me one of these, please: active, inactive

Recorded call for "CCN(CC)C(=S)SS(C)(=O)=O" ?
inactive

Dear all, I need the recorded test outcome for "O=C1C(Cl)=C(N2CCOCC2)C(=O)c2c(O)ccc(O)c21" , thank you.
inactive

Tell me the recorded outcome of this test for "COC(=O)c1ccccc1NCc1cc(O)ccc1O" .
inactive

Would you mind telling me which call this test gave CC(=O)NC1COC(COC(=O)CCCCCCCCCCNC(=O)c2ccc([N+](=O)[O-])c3c(=O)c4ccccc4[nH]c23)C(O)C1OC(C)C(=O)NC(C(=O)NC(CCC(N)=O)C(=O)OCc1ccccc1)C(C)C (centres undefined) ?
inactive

Please state the recorded outcome for this molecule: COc1ccccc1NC1Oc2cc3c(cc2C(c2cc(OC)c(OC)c(OC)c2)C1C)OCO3 (centres undefined)
active

Hi, sorry to bother you, what did the test record for "Cc1cc(S(=O)(=O)Nc2nc3ccsc3c(=O)n2N)c(S)cc1Cl" ?
inactive

Which result was noted for this molecule in the test: CCN(CC)C1CC(O[C@H]2C[C@](O)(C(=O)CO)Cc3c(O)c4c(c(O)c32)C(=O)c2c(OC)cccc2C4=O)OC(C)C1O (some centres undefined)
active

What classification did "O=C(N/C=C1\C(=O)Oc2ccccc2C1=O)Oc1ccccc1" end up with in this test?
inactive

Outcome? CC(O)(C#N)CC(O)(C(F)(F)Cl)C(F)(F)Cl (centres undefined)
inactive

Any idea what this test logged for "Cc1ncc(CCl)c2c1OC(C)(C)OC2" ?
inactive

Given "COc1ccc2c(CC(=O)O)cc(=O)oc2c1" , state the outcome it received in this test.
inactive

In this assay, the call recorded for "CCOC(=O)/C=C1\c2ccccc2C(=O)N1CC(=O)OCC" was what?
inactive

Would you mind telling me which call this test gave CC1(C)[C@@H]2C[C@H]1C(Cc1cccc(C[C@H]3c4cc(-c5ccccn5)ncc4[C@H]4C[C@@H]3C4(C)C)c1)c1cc(-c3ccccn3)ncc12 (some centres undefined) ?
active

Record request — test call for CCOC(=O)C(NC(=O)c1ccccc1)(Nc1ccc(S(=O)(=O)Nc2cc(C)nc(C)n2)cc1)C(F)(F)F (centres undefined)
inactive

Write down the call the test reported for this molecule. Item: "N#Cc1cc2c(cc1Cl)Sc1nnc(Nc3ccccc3)n1S2(=O)=O"
inactive

Record lookup: outcome of this test for N#Cc1ccccc1NC(=O)C(O)C(O)C(O)C(O)C=O (centres undefined) ?
inactive

# outcome recorded in this test, key = "Cc1n[nH]c(=S)n1/N=C/c1ccc(-c2ccc(Cl)cc2)o1"
inactive

// outcome(item) with item = O=C1/C(=C\c2cccc(Oc3ccccc3)c2)S(=O)(=O)C(c2ccccc2)N1c1ccc(Cl)cc1 (centres undefined)
inactive

Could you check what this test reported for "O=C1CSSCC(=O)Nc2ccccc2N1" ?
inactive

Recorded call for O=C1CSC(c2cccc(Oc3ccccc3)c2)N1c1ccc(Cl)cc1 (centres undefined) ?
inactive

Please share the test call associated with COC(=O)CN(CC(=O)NCCCBr)C1CCCCC1N(CC(=O)OC)CC(=O)OC (centres undefined) .
inactive

// return assay outcome for "CC(=O)CCC[C@H](C)[C@@H](O)[C@@H]1O[C@H]([C@@]2(C)CCC(=O)O2)C[C@H]1C(=O)O"
inactive

What was the test verdict on "Cc1ccc(-n2cc(-c3ccc(Cl)cc3)c3c(N/N=C4\SCC(=O)N4C)ncnc32)cc1" ?
inactive

Per the assay record, what outcome was assigned to CCNC(=O)Cc1nc2c(N)ncnc2n1C1OC(CO)C(O)C1O (centres undefined) ?
inactive

Fill in: this test's call for O=C(O)CCCc1ccc2c(c1)C(C(=O)O)CC2 (centres undefined) is ___
inactive

Lab log entry: Cc1c(O)c(OC2OC(CO)C(O)C(O)C2O)cc2c1CC[C@@H]1C2(C)C(=O)C[C@]2(C)[C@@H]([C@@](C)(O)C3CCC(C)(C)O3)[C@H](O)C[C@@]12C (some centres undefined) — outcome as called in the assay?
inactive

Called result for "COc1cc2ccc(/C=C\[N+](=O)[O-])cc2cc1OC"
inactive

I'd appreciate the recorded outcome for "CCc1cc(C)cc2[n+]1CC=C2C.[O-][Cl+3]([O-])([O-])[O-]" from this test.
inactive

Recorded call for Cc1nc(=O)[nH]c2c1C(=O)N(C(C)C)C(NC(C)C)S2 (centres undefined) ?
inactive

Please indicate how the test categorized C/C=C\C(CC(=O)NCCC1CN(S(=O)(=O)C(F)(F)F)c2ccccc21)CC(=O)OC (centres undefined) .
inactive

Fill in: this test's call for CC(=O)O[C@H]1CC[C@H]2[C@@H]3CCC4C(C)=NNC(=O)C4[C@H]3CC[C@]12C (some centres undefined) is ___
inactive

Which result was noted for this molecule in the test: "Cc1ccc(C(=O)CC(Cl)=C(Cl)Cl)cc1"
inactive

Could you kindly confirm the outcome this assay logged for CC(=O)OC1COC(Nc2nc(N)n(C)c(=O)c2N=O)C(OC(C)=O)C1OC(C)=O (centres undefined) ?
inactive

Test call for this molecule, please: N=C(N)NCCCC(NCc1c2ccccc2[n+]([O-])c2ccccc12)C(=O)O (centres undefined)
inactive

Fill in: this test's call for "O=C(Nc1c(Cl)cc([N+](=O)[O-])cc1Cl)C(=O)C1C(=O)NC(=S)NC1=O" is ___
inactive

Hi, do you know how COC1OC(CBr)C(OC(c2ccccc2)(c2ccccc2)c2ccccc2)C(OC(c2ccccc2)(c2ccccc2)c2ccccc2)C1OC(c1ccccc1)(c1ccccc1)c1ccccc1 (centres undefined) came out in this test?
inactive

Tell me the assay call for "Cc1cc(-c2ccc(C(=O)O)[nH]2)on1" please.
inactive

GET /call?item= CC1CCC2[C@@H](C)COC3O[C@]4(C)CCC1C32OO4 (some centres undefined) returns the recorded outcome of this test.
inactive

For "CCOC(=O)/C(=C/c1ccccn1)C(=O)c1ccccc1" , which call appears in the assay record?
inactive
